The entries below come with measured SUVmax liver values attached.
# Tested on: PC3 PD-L1 overexpressing and PD-L1-mock tumors
# experiment_description: PET imaging in NMRI-nude mice bearing PC3 PD-L1 and PC3 mock tumors
# Assay type: in vivo
# reported_conditions: tracer only, 24-25 hour p.i., i.v., mice
I'd appreciate a reply containing only the number, no unit.

# compound, readout, recorded_value
records = [
    ("Cc1c(COc2cc(OCc3cncc(S(C)(=O)=O)c3)c(CN[C@@H](CS(=O)(=O)O)C(=O)NCCS(=O)(=O)O)cc2Br)cccc1-c1cccc(OCc2cn(CCCN3CCN(C(=O)[C@H](CS(=O)(=O)O)NC(=O)CN4CCCN5CCN(CCCN(CC(=O)[O-])CC5)CC4)CC3)nn2)c1C.[64Cu+2] [[^64Cu]Cu-15]", "SUVmax liver", 1.01),
    ("Cc1c(COc2cc(OCc3cncc(S(C)(=O)=O)c3)c(CN[C@@H](CS(=O)(=O)O)C(=O)NCCS(=O)(=O)O)cc2Br)cccc1-c1cccc(OCc2cn(CCCN3CCN(C(=O)[C@H](CS(=O)(=O)O)NC(=O)CCCC(=O)NC45CNCCNCC(N)(CNCCNC4)CNCCNC5)CC3)nn2)c1C.[64Cu+2] [[^64Cu]Cu-16]", "SUVmax liver", 1.77),
    ("Cc1c(COc2cc(OCc3cncc(S(C)(=O)=O)c3)c(CN[C@@H](CS(=O)(=O)O)C(=O)NCCS(=O)(=O)O)cc2Br)cccc1-c1cccc(OCc2cn(CCCN3CCN(C(=O)[C@H](CS(=O)(=O)O)NC(=O)CC[C@H](C(=O)[O-])N4CCN(CC(=O)[O-])CCN(CC(=O)[O-])CC4)CC3)nn2)c1C.[64Cu+2] [[^64Cu]Cu-14]", "SUVmax liver", 1.41),
]

Here is another compound to look at.
SUVmax liver for Cc1c(COc2cc(OCc3cncc(S(C)(=O)=O)c3)c(CN[C@@H](CS(=O)(=O)O)C(=O)NCCS(=O)(=O)O)cc2Br)cccc1-c1cccc(OCc2cn(CCCN3CCN(C(=O)[C@H](CS(=O)(=O)O)NC(=O)CCCC(=O)NC45CNCCNCC(NC(=O)CCCC(=O)N[C@@H](CS(=O)(=O)O)C(=O)N6CCN(CCCn7cc(COc8cccc(-c9cccc(COc%10cc(OCc%11cncc(S(C)(=O)=O)c%11)c(CN[C@@H](CS(=O)(=O)O)C(=O)NCCS(=O)(=O)O)cc%10Br)c9C)c8C)nn7)CC6)(CNCCNC4)CNCCNC5)CC3)nn2)c1C.[64Cu+2] [[^64Cu]Cu-17] ?
8.62
